Data provenance is patent US11964971B2.

# Test system: MDR1-MDCK cell monolayers
# stated conditions: dog, MDCK-MDR1, 120 min, 5 μM, pH 7.4
readout name: MDCK-MDR1: % Recov B-A (%)
Provide only the numeric value, understood in %.

- compound: "CN(c1cnc(-c2cc3ccc(OCF)nc3cc2O)cn1)[C@@H]1CC2CC[C@H](N2)[C@@H]1F (single isomer, unassigned) [Compound 19E1]"
  readout name: "MDCK-MDR1: % Recov B-A (%)"
  endpoint result: 57

Annotate the compound COc1cc(-c2ccc(-c3cnc(N(C)[C@H]4C[C@@H]5CCC(N5)[C@H]4F)cn3)c(O)c2)ncn1 (single isomer, unassigned) [Compound 48E2] with its measured MDCK-MDR1: % Recov B-A (%). 57

Note down MDCK-MDR1: % Recov B-A (%) recorded for Oc1cc(-c2cn[nH]c2)c(F)cc1-c1cnc(N(C2CC2)[C@H]2C[C@@H]3CCC(N3)[C@H]2F)cn1 (single isomer, unassigned) [Compound 41E2] 72

Given the compound COc1cc(-c2ccc(-c3cnc(N(C)[C@@H]4CC5CC[C@H](N5)[C@@H]4F)cn3)c(O)c2)cnn1 (single isomer, unassigned) [Compound 26E1] , write its reported MDCK-MDR1: % Recov B-A (%). 74

Specify measured MDCK-MDR1: % Recov B-A (%) for CN(c1cnc(-c2cc(F)c(-c3cnn(C)c3)cc2O)cn1)[C@H]1C[C@@H]2CCC(N2)[C@H]1F (single isomer, unassigned) [Compound 17E1] . 74

Supply recorded MDCK-MDR1: % Recov B-A (%) for CN(c1cnc(-c2ccc(-c3cn[nH]c3)cc2O)cn1)[C@H]1C[C@@H]2COCC(N2)[C@H]1F (single isomer, unassigned) [Compound 72E2] here. 113

Name the recorded MDCK-MDR1: % Recov B-A (%) of the compound listed here: CN(c1cnc(-c2cc(F)c(-c3cnn(C)c3)cc2O)cn1)[C@H]1C[C@]2(C)CC[C@@](C)(N2)[C@H]1F [Compound 58E2] 69

Supply recorded MDCK-MDR1: % Recov B-A (%) for COc1cc(-c2cc(O)c(-c3cnc(N(C4CC4)[C@H]4C[C@@H]5CCC(N5)[C@H]4F)cn3)cc2F)ccn1 (single isomer, unassigned) [Compound 36E2] here. 40

Indicate the recorded MDCK-MDR1: % Recov B-A (%) value for this compound: CN(c1cnc(-c2cc(F)c(C3=CC(F)NC(F)=C3)cc2O)cn1)[C@@H]1C[C@@]2(C)CC[C@](C)(N2)[C@@H]1F (single isomer, unassigned) [Compound 63E1] 35

Could you please provide reported MDCK-MDR1: % Recov B-A (%) for CN(c1cnc(-c2ccc(-c3cn[nH]c3)cc2O)cn1)[C@H]1CC2CC(F)(F)[C@H](C1)N2 (single isomer, unassigned) [Compound 9E2] ? Thanks! 90

Output measured MDCK-MDR1: % Recov B-A (%) for this item: CN(c1cnc(-c2ccc(-c3cc(=O)n(C)cn3)cc2O)cn1)[C@@H]1CC2CC[C@H](N2)[C@@H]1F (single isomer, unassigned) [Compound 47E1] 78

Please supply the value of reported MDCK-MDR1: % Recov B-A (%) for the item Cn1cc(-c2ccc(-c3cnc(N(C4CC4)[C@@H]4CC5CC[C@H](N5)[C@@H]4F)cn3)c(O)c2)cn1 (single isomer, unassigned) [Compound 49E1] 65

Identify MDCK-MDR1: % Recov B-A (%) associated with the compound CN(c1cnc(-c2ccc(-c3ccn(C)c(=O)c3)cc2O)cn1)[C@H]1CC2CCC[C@@H](N2)[C@H]1F (single isomer, unassigned) [Compound 5E2] 82

Output MDCK-MDR1: % Recov B-A (%) of CN(c1cnc(-c2ccc(-c3cnn(C)c3)cc2O)cn1)[C@H]1C[C@@H]2CCC(N2)[C@H]1F (single isomer, unassigned) [Compound 16E2] 86
